TEST_SYSTEM: UniProt:Q12809
Sequence (Q12809 whole entry): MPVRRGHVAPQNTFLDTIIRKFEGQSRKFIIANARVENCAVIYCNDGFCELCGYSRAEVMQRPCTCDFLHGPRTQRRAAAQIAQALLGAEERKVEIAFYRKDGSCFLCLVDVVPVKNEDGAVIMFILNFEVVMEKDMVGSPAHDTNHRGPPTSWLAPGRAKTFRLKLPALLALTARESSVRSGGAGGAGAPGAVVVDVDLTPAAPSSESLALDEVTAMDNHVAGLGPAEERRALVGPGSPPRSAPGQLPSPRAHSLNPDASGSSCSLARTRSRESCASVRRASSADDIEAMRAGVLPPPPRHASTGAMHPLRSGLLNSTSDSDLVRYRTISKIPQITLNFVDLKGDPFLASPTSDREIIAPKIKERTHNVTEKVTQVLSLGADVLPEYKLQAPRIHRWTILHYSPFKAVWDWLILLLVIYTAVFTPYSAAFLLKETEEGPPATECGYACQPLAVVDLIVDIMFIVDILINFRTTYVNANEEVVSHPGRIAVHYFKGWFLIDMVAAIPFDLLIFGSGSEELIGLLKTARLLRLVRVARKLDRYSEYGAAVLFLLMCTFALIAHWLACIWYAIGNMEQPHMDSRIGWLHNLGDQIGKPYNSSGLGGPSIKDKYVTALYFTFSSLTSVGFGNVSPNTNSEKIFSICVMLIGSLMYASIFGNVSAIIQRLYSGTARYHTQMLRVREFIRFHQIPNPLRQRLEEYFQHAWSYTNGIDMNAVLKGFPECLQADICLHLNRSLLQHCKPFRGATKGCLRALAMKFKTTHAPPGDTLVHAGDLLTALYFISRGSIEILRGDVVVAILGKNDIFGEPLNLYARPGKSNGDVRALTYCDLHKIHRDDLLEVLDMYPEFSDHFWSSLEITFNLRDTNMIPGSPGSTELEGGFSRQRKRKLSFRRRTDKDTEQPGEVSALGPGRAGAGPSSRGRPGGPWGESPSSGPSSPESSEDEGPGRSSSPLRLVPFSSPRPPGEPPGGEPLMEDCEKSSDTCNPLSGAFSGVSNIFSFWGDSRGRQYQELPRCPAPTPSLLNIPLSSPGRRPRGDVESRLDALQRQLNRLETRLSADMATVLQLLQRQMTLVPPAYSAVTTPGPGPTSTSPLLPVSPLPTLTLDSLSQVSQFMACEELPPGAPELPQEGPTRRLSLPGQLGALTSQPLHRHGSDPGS
ASSAY: Inhibition of human ERG at 30 uM
Recorded inhibition at 30 µM values for a group of compounds are listed next.
METRIC: inhibition at 30 µM (%)

CHEMICAL_STRUCTURE	QUANTITATIVE_RESULT
CC[C@H]1OC(=O)[C@H](C)[C@@H](O[C@H]2C[C@@](C)(OC)C[C@H](C)O2)[C@H](C)[C@@H](O[C@@H]2O[C@H](C)C[C@H](N(C)CC(C)(C)O)[C@H]2O)[C@](C)(O)C[C@@H](C)[C@H](O)[C@H](C)[C@@H](O)[C@]1(C)O	86
CC[C@H]1OC(=O)[C@H](C)[C@@H](O[C@H]2C[C@@](C)(OC)C[C@H](C)O2)[C@H](C)[C@@H](O[C@@H]2O[C@H](C)C[C@H](N(C)C[C@H](C)O)[C@H]2O)[C@](C)(O)C[C@@H](C)[C@H](O)[C@H](C)[C@@H](O)[C@]1(C)O	89
CC[C@H]1OC(=O)[C@H](C)[C@@H](O[C@H]2C[C@@](C)(OC)C[C@H](C)O2)[C@H](C)[C@@H](O[C@@H]2O[C@H](C)C[C@H](N(C)C(C)C)[C@H]2O)[C@](C)(O)C[C@@H](C)[C@H](O)[C@H](C)[C@@H](O)[C@]1(C)O	74
CC[C@H]1OC(=O)[C@H](C)[C@@H](O[C@H]2C[C@@](C)(OC)C[C@H](C)O2)[C@H](C)[C@@H](O[C@@H]2O[C@H](C)C[C@H](N(C)C3CCC3)[C@H]2O)[C@](C)(O)C[C@@H](C)[C@H](O)[C@H](C)[C@@H](O)[C@]1(C)O	92
CC[C@H]1OC(=O)[C@H](C)[C@@H](O[C@H]2C[C@@](C)(OC)C[C@H](C)O2)[C@H](C)[C@@H](O[C@@H]2O[C@H](C)C[C@H](N(C)C(C)C)[C@H]2O)[C@](C)(O)C[C@@H](C)[C@H](OCC(N)=O)[C@H](C)[C@@H](O)[C@]1(C)O	28
CC[C@H]1OC(=O)[C@H](C)[C@@H](O[C@H]2C[C@@](C)(OC)C[C@H](C)O2)[C@H](C)[C@@H](O[C@@H]2O[C@H](C)C[C@H](N(C)C(C)C)[C@H]2O)[C@](C)(O)C[C@@H](C)[C@H](OCC(=O)NC)[C@H](C)[C@@H](O)[C@]1(C)O	57
CC[C@H]1OC(=O)[C@H](C)[C@@H](O[C@H]2C[C@@](C)(OC)C[C@H](C)O2)[C@H](C)[C@@H](O[C@@H]2O[C@H](C)C[C@H](N(C)CCO)[C@H]2O)[C@](C)(O)C[C@@H](C)[C@H](O)[C@H](C)[C@@H](O)[C@]1(C)O	68
CC[C@H]1OC(=O)[C@H](C)[C@@H](O[C@H]2C[C@@](C)(OC)C[C@H](C)O2)[C@H](C)[C@@H](O[C@@H]2O[C@H](C)C[C@H](N(C)C(C)C)[C@H]2O)[C@](C)(O)C[C@@H](C)[C@H](OCC(=O)N(C)C)[C@H](C)[C@@H](O)[C@]1(C)O	50
